System: Vero E6 infected with SARS-CoV-2
Test: inhibition of SARS-CoV-2 cytopathic effect; higher = more antiviral protection, active = above 15
Details: 100 nM; 48 h
measured.property: inhibition of SARS-CoV-2 cytopathic effect (%)
Give bare numbers, in %.

Answered cases to consult:
>>> experimental_result("C=CCNC(=O)c1cc([N+](=O)[O-])cc2c(=O)[nH]c(Nc3ccc(Cl)c(Cl)c3)nc12")
-1.8
>>> experimental_result("C=C1/C(=C\\C=C2/CCC[C@]3(C)[C@@H]([C@H](C)/C=C/[C@H](C)C(C)C)CC[C@@H]23)C[C@@H](O)C[C@@H]1O")
0.98
>>> experimental_result("Cc1ccc(Sc2cncc3sc(C(N)=O)cc23)cc1")
-2.49
>>> experimental_result("CCCN(CCC)CCc1ccc(OC)c(OCCc2ccccc2)c1")
0.93
>>> experimental_result("COc1cc(OC)cc(N(CCNC(C)C)c2ccc3ncc(-c4cnn(C)c4)nc3c2)c1")
0.68
>>> experimental_result("CCN(CC)CCNC(=O)c1cc(Cl)c(N)cc1OC [metoclopramide]")
0.31

Batch request: inhibition of SARS-CoV-2 cytopathic effect for each of the following molecules.
1. C[C@]12CC[C@@H]3c4ccc(O)cc4C[C@@H](CCCCCCCCC[S+]([O-])CCCC(F)(F)C(F)(F)F)[C@H]3[C@@H]1CC[C@@H]2O (stereo partly drawn)
2. CCc1cncnc1N1CCN(Cc2nc3cc(C(F)(F)F)ccc3[nH]2)CC1

0.63
1.45

====

Tested on: Vero E6 infected with SARS-CoV-2
Test: inhibition of SARS-CoV-2 cytopathic effect; higher = more antiviral protection, active = above 15
Conditions: 100 nM; 48 h
measured.property: inhibition of SARS-CoV-2 cytopathic effect (%)
Answers are plain numbers, in %.

>>> experimental_result("Cc1ccc(C)c(OCCCC(C)(C)C(=O)O)c1 [gemfibrozil]")
-0.2
>>> experimental_result("COc1ccc(/C=C\\c2cc(OC)c(OC)c(OC)c2)cc1O [combretastatin-A-4]")
-1.22

Go through the list and state inhibition of SARS-CoV-2 cytopathic effect for each entry.
1. C[C@H]1[C@H](C)CC[C@]2(C(=O)O)CC[C@]3(C)C(=CC[C@@H]4[C@@]5(C)C[C@@H](O)[C@H](O)C(C)(C)[C@@H]5CC[C@]43C)[C@H]12 [corosolic-acid]
2. CNc1ncnc2c1ncn2[C@@H]1O[C@H](CO)[C@@H](O)[C@H]1O [N6-methyladenosine]

1. -0.51
2. -1.29

Consider the following items and state reported inhibition of SARS-CoV-2 cytopathic effect for each.
1. COc1cccc(N(C)C(=S)Oc2ccc3c(c2)CCCC3)n1 [liranaftate]
2. CC(C)(F)C[C@H](N[C@@H](c1ccc(-c2ccc(S(C)(=O)=O)cc2)cc1)C(F)(F)F)C(=O)NC1(C#N)CC1 [odanacatib]

[0.18, -3.49]

Please state inhibition of SARS-CoV-2 cytopathic effect for every compound in the list that follows.
1. O=C(NC[C@H]1CN(c2ccc(N3CCOCC3=O)cc2)C(=O)O1)c1ccc(Cl)s1 [Rivaroxaban (Xarelto)]
2. c1cc(-c2cnn3cc(-c4ccc(OCCN5CCCCC5)cc4)cnc23)ccn1 [dorsomorphin]

[3.46, 2.59]

====

Hi there, I'd appreciate the recorded inhibition of SARS-CoV-2 cytopathic effect for every entry that follows.
Tested on: Vero E6 infected with SARS-CoV-2
Experiment: inhibition of SARS-CoV-2 cytopathic effect; higher = more antiviral protection, active = above 15
Settings: 833.33 nM; 48 h
Give bare numbers, in %.

As a guide, the following entries are already answered.
>>> experimental_result("COC(=O)Nc1nc2cc([S+]([O-])c3ccccc3)ccc2[nH]1 (centres undefined)")
0.7
>>> experimental_result("Cc1ccc2nc(N)[nH]c(=O)c2c1Sc1ccncc1")
2.04
>>> experimental_result("Cc1nc(-c2ccc(OCC(C)C)c(C#N)c2)sc1C(=O)O")
2.99
>>> experimental_result("CCCCCCCCCCCC(=O)N(CCO)CCO [lauric-diethanolamide]")
1.01
>>> experimental_result("Cc1ncc(-c2ccnc(Nc3ccc(S(C)(=O)=O)cc3)n2)n1C(C)C")
6.02

List reported inhibition of SARS-CoV-2 cytopathic effect for each of these compounds:
1. NC(=O)c1ccc2[nH]ccc2c1
2. CC(C)=CCC[C@]1(C)C=Cc2c(O)c3c(c(CC=C(C)C)c2O1)O[C@]12C(=C[C@@H]4C[C@H]1C(C)(C)O[C@@]2(C/C=C(/C)C(=O)O)C4=O)C3=O
3. COc1cccc(OC)c1-c1ccc(C[C@H](NC(=O)c2c(Cl)cccc2Cl)C(=O)O)cc1
4. C[S+]([O-])c1ccc(-c2nc(-c3ccc(F)cc3)c(-c3ccncc3)[nH]2)cc1 (centres undefined)

1. 0.03
2. 4.87
3. 1.89
4. -1.33
